System: A549 NSCLC
Test: NCI tumour cell line growth inhibition, 48 h; in the data active means GI50 below about 0.43 µM; inactive means the rest
The categories you may choose from are YES for active, NO for inactive

// return assay outcome for `CC(=O)Oc1c(C(=O)[O-])cc(C(C)C)cc1C(C)C.CC(=O)Oc1c(C(=O)[O-])cc(C(C)C)cc1C(C)C.CC(=O)Oc1c(C(=O)[O-])cc(C(C)C)cc1C(C)C.CC(=O)Oc1c(C(=O)[O-])cc(C(C)C)cc1C(C)C.[Cu+2].[Cu+2]`
NO

`CCCCCCCCCCCC[C@@H](O)[C@H]1CC[C@H]([C@H](O)CC[C@H](O)[C@@H]2CC[C@@H](CCCCCCCC3=C[C@H](C)OC3=O)O2)O1` , same question.
NO

Please answer likewise for `CC(C)[C@@H]1CC[C@]2(CO2)[C@@H]2C(=O)OCC(C(=O)O)=C[C@H]21`
NO

What do you get for Fc1ccc(NC(c2ccc(F)cc2)C2CCN(CCCCc3ccccc3)CC2)cc1 (stereo not given) ?
NO

What do you have for `CCN(CC)c1ccc2nc3ccc(=[N+](CC)CC)cc-3oc2c1` ?
NO

Quick one: CCCCS(=O)c1sc2nc(-c3cccs3)cc(-c3ccccc3)c2c1N (stereo not given)
NO

Further, for `COCCOC1=C(Cl)C(=O)c2ccccc2C1=O` ?
NO

Item: `OCC1CC[N-]CC1.OCC1CC[N-]CC1.[Cl][Pt+2]([Cl])([Cl])[Cl]`
NO

Query `COc1cc(/C=C/c2cc(/C=C/c3ccc(O)c(OC)c3)n(C(=O)c3ccccc3Br)n2)ccc1O` next
NO

Try this molecule next: O=C1CC(c2cccc(Cl)c2)Nc2ccc(N3CCCC3)cc21 (stereo not given)
YES

Proceed to `C#Cc1ccc(-n2c(/C=C/c3ccc(O)cc3)nc3ncccc3c2=O)cc1`
NO

Lookup `O=C(COc1ccc(/C=C2\Oc3ccccc3C2=O)cc1)Nc1nc2ccccc2s1`
NO

Now try `O=C1c2cc3c(cc2-c2c1c1ccc(Cl)cc1c(=O)n2C[C@H](O)CO)OCO3` .
YES

`CN(C)c1ccc(-c2cc(-c3ccc(Nc4nc(Nc5ccc(Cl)cc5)nc(Nc5ccc(Cl)cc5)n4)cc3)nc(N)c2C#N)cc1` ?
NO

Same question, `N#CC(C#N)=C/C=C(\Sc1ccc(Cl)cc1)c1ccc(F)cc1` this time
NO
